Target: Purinoreceptor P2Y1 (Homo sapiens)
Construct: host or cells: Ca2+ optimized hematopoietic cell lines (rat)
Sequence (P47900 whole entry): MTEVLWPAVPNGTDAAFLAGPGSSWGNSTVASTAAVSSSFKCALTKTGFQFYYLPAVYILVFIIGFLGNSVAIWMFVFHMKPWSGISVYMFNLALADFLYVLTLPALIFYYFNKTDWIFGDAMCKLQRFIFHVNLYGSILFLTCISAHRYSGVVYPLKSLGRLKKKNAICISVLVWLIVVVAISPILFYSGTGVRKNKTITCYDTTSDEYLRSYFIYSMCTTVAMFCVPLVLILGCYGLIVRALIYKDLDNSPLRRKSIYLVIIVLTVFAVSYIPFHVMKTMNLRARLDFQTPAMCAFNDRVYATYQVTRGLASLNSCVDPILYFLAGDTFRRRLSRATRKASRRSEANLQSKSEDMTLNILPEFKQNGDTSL
Assay: Ca2+ assay (FLIPR) for the GPCR purinoreceptor P2Y1, agonist and antagonist mode
Assay type: cell-based
Conditions: P2Y1 receptor, 10 μM
Method: Biological and Pharmacological Methods 1. Ca^2+ Assays for the GPCRs Motilin Receptor, Prostaglandin F (FP) Receptor, 5-hydroxytryptamine 2B (5-HT2B) Receptor, and Purinoreceptor P2Y1 Assays were performed using on a FLIPR^TETRA fluorometric imaging plate reader (Molecular Devices) with ScreenWorks Version 2 (Molecular Devices) as device operating and data analysis software. Dose dependent agonist and antagonist activities were determined. […]
Please go through the items and note down their inhibition at 10 µM.
Please provide the amount together with its unit, number first.

The examples below pair each entry with its known result.
> print(dat)
                           substance.smiles                           tested.on  observed.value
1  CN1CC(=O)N2C[C@H](NC(=O)OC(C)(C)C)C[C@H]2CSc2cccc(c2)C(=O)N(C)[C@H](C(=O)NCc2ccc3ccccc3c2)CCC1=O  Purinoreceptor P2Y1 (Homo sapiens)             57%
2  CC(=O)N[C@@H]1C[C@H]2CSc3cccc(c3)C(=O)N(C)[C@H](C(=O)NCc3ccc4ccccc4c3)CCC(=O)N(C)CC(=O)N2C1  Purinoreceptor P2Y1 (Homo sapiens)             19%
3  CN1CC(=O)N2C[C@H](NC(=O)CCc3ccncc3)C[C@H]2CSc2cccc(c2)C(=O)N(C)[C@H](C(=O)NCc2ccc3ccccc3c2)CCC1=O  Purinoreceptor P2Y1 (Homo sapiens)             45%

We next turn to a different compound, shown below.
Given the entry CCCCC(=O)N[C@@H]1C[C@H]2CSc3cccc(c3)C(=O)N(C)[C@H](C(=O)NCc3ccc4ccccc4c3)CCC(=O)N(C)CC(=O)N2C1 , report its measured inhibition at 10 µM.
60%

###

Please go through the items and note down their inhibition at 10 µM.
Target: Motilin Receptor (Homo sapiens)
Construct: host or cells: Ca2+ optimized hematopoietic cell lines (rat)
Sequence (O43193 whole entry, species assumed): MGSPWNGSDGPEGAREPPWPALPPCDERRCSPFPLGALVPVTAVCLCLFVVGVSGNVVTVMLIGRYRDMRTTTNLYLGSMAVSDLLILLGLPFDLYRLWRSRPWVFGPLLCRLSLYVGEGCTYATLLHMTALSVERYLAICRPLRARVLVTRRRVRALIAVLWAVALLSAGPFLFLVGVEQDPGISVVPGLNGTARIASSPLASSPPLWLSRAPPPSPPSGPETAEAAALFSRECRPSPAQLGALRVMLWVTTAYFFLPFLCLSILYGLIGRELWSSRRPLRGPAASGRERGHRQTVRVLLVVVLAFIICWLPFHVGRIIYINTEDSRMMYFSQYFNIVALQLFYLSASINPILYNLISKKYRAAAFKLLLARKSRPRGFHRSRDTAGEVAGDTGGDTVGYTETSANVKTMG
Assay: Ca2+ assay (FLIPR) for the GPCR motilin receptor, agonist and antagonist mode
Assay type: cell-based
Details: antagonist mode, at 10 μM
Numbers only, in %.

> print(dat)
                           substance.smiles                        tested.on  observed.value
1  CN(C)CCCNC(=O)[C@@H]1CCC(=O)N(C)CC(=O)N2C[C@@H](NC(=O)Cc3cccc4ccccc34)C[C@H]2COc2ccc(F)cc2C(=O)N1C  Motilin Receptor (Homo sapiens)              23

The following compounds each have a reported value; give each one's inhibition at 10 µM.
1. CN(C)CCNC(=O)[C@@H]1CCC(=O)N(C)CC(=O)N2C[C@@H](NC(=O)Cc3cccc(C(F)(F)F)c3)C[C@H]2COc2ccc(F)cc2C(=O)N1C
2. CN1CC(=O)N2C[C@@H](NC(=O)Cc3cccc4ccccc34)C[C@H]2COc2ccc(F)cc2C(=O)N(C)[C@H](C(=O)NCCN)CCC1=O

26
100

###

Test: Pharmacokinetic study after single i.v. and p.o. administration in male SD rats
Assay type: in vivo
Conditions: male, SD, plasma; rat, po, 20 mg/kg
Value Type: Cmax

> print(dat)
                                   compound  observed.value
1  CN1CCC[C@H](N)C(=O)N2C[C@@H](OCc3ccccc3)C[C@H]2COc2cccc(c2)C1=O [Ex. 568]       380 ng/mL
2  CN1CCC[C@H](NC(=O)CC(C)(C)C)C(=O)N2C[C@@H](O)C[C@H]2COc2cccc(c2)C1=O [Ex. 571]      1520 ng/mL

We next turn to a different compound, shown below.
Given the entry CN1CCC[C@H](N)C(=O)N2C[C@@H](Oc3ccccc3)C[C@H]2COc2cccc(c2)C1=O [Ex. 561] , report its measured Cmax.
248 ng/mL

###

Please go through the items and note down their inhibition at 10 µM.
Molecular target: Prostaglandin F (FP) Receptor (Homo sapiens, UniProt P43088)
Construct: host or cells: Ca2+ optimized hematopoietic cell lines (rat)
Sequence (P43088 whole entry): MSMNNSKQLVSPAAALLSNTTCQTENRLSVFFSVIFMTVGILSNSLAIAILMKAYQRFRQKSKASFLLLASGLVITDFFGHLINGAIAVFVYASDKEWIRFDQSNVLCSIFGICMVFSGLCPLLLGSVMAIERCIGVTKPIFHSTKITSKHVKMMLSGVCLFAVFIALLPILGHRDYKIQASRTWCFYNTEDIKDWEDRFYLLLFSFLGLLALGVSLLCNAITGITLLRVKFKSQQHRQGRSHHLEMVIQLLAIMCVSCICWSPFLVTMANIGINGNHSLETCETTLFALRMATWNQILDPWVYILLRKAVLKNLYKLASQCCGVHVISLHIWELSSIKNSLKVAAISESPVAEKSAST
Assay: Ca2+ assay (FLIPR) for the GPCR prostaglandin F (FP) receptor, agonist and antagonist mode
Type: cell-based
Details: 10 μM
Answers are plain numbers, in %.

The examples below pair each entry with its known result.
> print(dat)
                                   compound           value.type  unit.label  observed.value
1  CN1CCC[C@H](NC(=O)Cc2cccc3ccccc23)C(=O)N2C[C@@H](NC(=O)Nc3cccc(N(C)C)c3)C[C@H]2COc2cccc(c2)C1=O [Ex. 512]  inhibition at 10 µM           %              97
2  CN1CCC[C@H](NC(=O)Nc2cccc(N(C)C)c2)C(=O)N2C[C@@H](NC(=O)Cc3ccc4ccccc4c3)C[C@H]2COc2cccc(c2)C1=O [Ex. 507]  inhibition at 10 µM           %              51

We next turn to a different compound, shown below.
Given the entry CN1CCC[C@H](NC(=O)C(c2ccccc2)c2ccccc2)C(=O)N2C[C@@H](NC(=O)Cc3ccc(-c4ccccc4)cc3)C[C@H]2COc2cccc(c2)C1=O [Ex. 547] , report its measured inhibition at 10 µM.
47

###

Please go through the items and note down their Metabolic Stability 60 min mouse [% remain.].
Test: Metabolic stability assay, CD-1 mouse microsomes
Assay type: in vitro ADME
Details: both, CD-1, mouse, microsomes, 1 h, 10 µM
Protocol: 4. Plasma and Metabolic Stability Assays […] Microsomes from a human 50 donor mixed gender pool and 1:1 mixtures of microsomes from CD-1 mouse single-gender pools are purchased from Celsis (Belgium). […] After acetonitrile precipitation (2 volumes) and HPLC/MS/MS analysis metabolic turnover is expressed in % of the initial 0 minutes value and half life T½ (min) is calculated. […]
Give bare numbers, in % remain..

The examples below pair each entry with its known result.
> print(dat)
                           substance.smiles  unit.label  observed.value
1  COCCNC(=O)[C@@H]1COCC(=O)N2C[C@@H](N3CCN(Cc4ccccc4)CC3)C[C@H]2COc2cccc(c2)C(=O)N1C   % remain.              87
2  COCCNC(=O)[C@@H]1COCC(=O)N2C[C@@H](N3CCN(C)CC3)C[C@H]2COc2cccc(c2)C(=O)N1C   % remain.              86
3  CN(C)CC(=O)N[C@@H]1C[C@H]2COc3cccc(c3)C(=O)N(C)C[C@H](NC(=O)Cc3ccc4ccccc4c3)C(=O)N(C)CC(=O)N2C1   % remain.              90
4  CN1C(=O)c2cccc(c2)OC[C@@H]2C[C@H](N)CN2C(=O)COC[C@H]1C(=O)NCc1ccc2ccccc2c1   % remain.              82
5  CN1CC(=O)N2C[C@@H](NC(=O)Cc3cccc4ccccc34)C[C@H]2COc2ccc(F)cc2C(=O)N(C)[C@H](C(=O)NCCN)CCC1=O   % remain.              85

We next turn to a different compound, shown below.
Given the entry CC(C)CN1C[C@H]2C[C@H]1COc1ccc(F)cc1C(=O)N(C)CCC[C@H](NC(=O)Cc1ccccc1)C(=O)N2 , report its measured Metabolic Stability 60 min mouse [% remain.].
84

###

Assay: in vitro
Assay type: in vitro ADME, human
Details: human, plasma, 4 h, 10 µM
Value Type: Plasma Stability 240 min hum [% remain.]
Please provide the amount together with its unit, number first.

The following molecules each have a reported value; give each one's Plasma Stability 240 min hum [% remain.].
1. CN1CCN([C@H]2CCCN(C)C(=O)c3cccc(c3)OC[C@@H]3C[C@H](O)CN3C2=O)CC1
2. COCCNC(=O)[C@@H]1COCC(=O)N2C[C@@H](N)C[C@H]2COc2cccc(c2)C(=O)N1C
3. CN1CCC[C@H](N)C(=O)N2C[C@@H](Oc3ccccc3)C[C@H]2COc2cccc(c2)C1=O
4. COCCNC(=O)[C@@H]1COCC(=O)N2C[C@@H](N3CCN(Cc4ccccc4)CC3)C[C@H]2COc2cccc(c2)C(=O)N1C
5. CN1CCC[C@H](NC(=O)CC(C)(C)C)C(=O)N2C[C@@H](N)C[C@H]2COc2cccc(c2)C1=O
6. CN1CCC[C@H](NC(=O)Cc2cccc3ccccc23)C(=O)N2C[C@@H](NC(=O)Cc3ccc4ccccc4c3)C[C@H]2COc2cccc(c2)C1=O
7. CCCCCCCCCC(=O)N[C@H]1CCCN(C)C(=O)c2cccc(c2)OC[C@@H]2C[C@H](NC(=O)Nc3cccc(N(C)C)c3)CN2C1=O

1: 70 % remain.; 2: 85 % remain.; 3: 99 % remain.; 4: 48 % remain.; 5: 95 % remain.; 6: 100 % remain.; 7: 100 % remain.
